Quick reference for TGI among some molecules
Test system: A498 renal
Experiment: NCI tumour cell line growth inhibition, 48 h

TGI reading for CCOC(=O)c1oc2c(OC)cc(Cl)c3c2c1CCC3 : > 100 µM

---
TGI reading for Cc1ccc2nc3n(c2c1)C(c1c(F)cccc1F)SC3 (configuration not stated) : > 100 µM

TGI reading for c1cc(N2CCN(c3ccc(C4=NCCN4)cc3)CC2)ccc1C1=NCCN1 : > 100 µM

TGI reading for CCC#CCCCCCCCCC(F)C(=O)O (configuration not stated) : > 100 µM

TGI reading for O=Cc1ccc(-c2nccc3c2[nH]c2ccccc23)o1 : 1.46 µM

TGI reading for COc1cc(-c2cncn2-c2ccc(-c3nc4ccc(F)cc4s3)cc2)ccc1F : 16.9 µM

TGI reading for COC(=O)C1CCC(=O)C(Sc2ccccc2)C1 (configuration not stated) : > 100 µM

TGI reading for O=C(CC1(O)C(=O)Nc2ccc([N+](=O)[O-])cc21)c1ccc2ccccc2c1 (configuration not stated) : > 100 µM

TGI reading for CCC(/C=C(C)/C=C/C(=O)c1c(O)c(-c2ccc(O)cc2)c[nH]c1=O)CO (configuration not stated) : 18.8 µM

TGI reading for O=C1c2cc3c(cc2[C@@H]2NC4CCCC14O2)OCO3 (some centres not stated) : > 100 µM

TGI reading for COC(=O)c1c2c(c(C)[n+]([O-])c1C)C(=O)C(NCc1cccc(Cl)c1)=CC2=O : 3.18 µM

TGI reading for CCCCC/C=C/C(=O)CCc1ccc(O)c(OC)c1 : 26.8 µM

TGI reading for O=[N+]([O-])c1ccc2nc3n(c2c1)C(c1c(F)cccc1F)SC3 (configuration not stated) : > 100 µM

TGI reading for CCCCSSC(=S)N(CC)CC : > 100 µM

TGI reading for CNc1ccc(S(=O)Nc2ccc(OC)cc2)cc1 (configuration not stated) : > 100 µM

TGI reading for Cc1cc(C)nc(NS(=O)(=O)c2ccc(NC(=O)c3cccc4c(Nc5ccc(S(=O)(=O)N=C(N)N)cc5)c5ccc(Cl)cc5nc34)cc2)n1 : > 100 µM

TGI reading for CCC(CC)COC(=O)[C@H](C)N[P@](=O)(OC[C@H]1O[C@@](C#N)(c2ccc3c(N)ncnn23)[C@H](O)[C@@H]1O)Oc1ccccc1 : 8.57 µM

----------
Test system: HOP-62 NSCLC
Assay: NCI tumour cell line growth inhibition, 48 h
parameter: TGI

Would you please look over these solved cases?
Field TGI (HOP-62 NSCLC), entry O=C(C(Br)C(Br)c1ccccc1)C(Br)C(Br)c1ccccc1 (stereo unspecified) : 8.89 µM

Field TGI (HOP-62 NSCLC), entry CN(CCN(C)CCN(C)C(=O)Cc1ccc(Cl)c(Cl)c1)CCN1CCCC1 : 86.1 µM

Field TGI (HOP-62 NSCLC), entry Nc1ccc2nc3ccc(=O)cc-3n(-c3ccccc3)c2c1 : > 100 µM

Field TGI (HOP-62 NSCLC), entry CS(=O)(=O)Nc1ccc(Nc2cc[nH]c3ccc4nccc4c23)cc1 : 37.3 µM

Field TGI (HOP-62 NSCLC), entry O=C1C=CC(=O)N1n1c(Cc2ccccc2)n[nH]c1=O : > 100 µM

Field TGI (HOP-62 NSCLC), entry COc1ccc2c(c1)O[C@@H]1[C@@H](OC3OC(CO)C(O)C(O)C3O)Oc3cc(OC)c(OC)cc3[C@]1(O)C2=O (stereo partly specified) : > 100 µM

Field TGI (HOP-62 NSCLC), entry CCCCC/C=C1\CC(CO)(COC(=O)CC(C(C)C)C(C)C)OC1=O (stereo unspecified) : 21.1 µM

Field TGI (HOP-62 NSCLC), entry CC1(C)N([O-])[N+](=O)C1(C)Br (stereo unspecified) : > 100 µM

Field TGI (HOP-62 NSCLC), entry O=NN(CCCl)C(=O)NC1CCC(C(=O)O)CC1 (stereo unspecified) : > 100 µM

Field TGI (HOP-62 NSCLC), entry O=C(NNC(=O)C1CCN(S(=O)(=O)c2ccc(-c3ccccc3)cc2)CC1)c1ccc(C(F)(F)F)cc1 : 16.5 µM

---
Field TGI (HOP-62 NSCLC), entry CCP(=S)(CC)CCl : > 100 µM

Field TGI (HOP-62 NSCLC), entry CC[N+](C)(CC)CCNC(=O)C(O)(c1ccccc1)c1ccccc1 : > 100 µM

Field TGI (HOP-62 NSCLC), entry O=Cc1ccc(-c2nccc3c2[nH]c2ccccc23)o1 : > 100 µM

Field TGI (HOP-62 NSCLC), entry COc1ccc(-c2nc3ccc([N+](=O)[O-])cc3c(=O)[nH]2)cc1 : > 67.7 µM

Field TGI (HOP-62 NSCLC), entry Cn1c2ccccc2c(=NNc2ccc(S(N)(=O)=O)cc2)c2ccccc21 : > 50 µM

Field TGI (HOP-62 NSCLC), entry O=C1C2=C(CCCC2)Nc2cccc3ncn1c23 : > 100 µM

Field TGI (HOP-62 NSCLC), entry CN(CC(=O)O)c1ncc2c(n1)-c1ccccc1OC2c1ccccc1 (stereo unspecified) : > 100 µM

Field TGI (HOP-62 NSCLC), entry Cc1cc(O)c(C=NC(=S)C(N)=S)c(=O)o1 : > 100 µM

Field TGI (HOP-62 NSCLC), entry O=C(NC1CCCCC1)NS(=O)(=O)c1ccc(-n2nc3c(c2-c2cccs2)Cc2ccccc2-3)cc1 : > 100 µM

Field TGI (HOP-62 NSCLC), entry O=C1c2cc3c(cc2[C@@H]2NC4CCCC14O2)OCO3 (stereo partly specified) : > 100 µM

Field TGI (HOP-62 NSCLC), entry COc1cccc(NC(=O)CC(=O)Nc2cccc(OC)c2)c1 : > 100 µM
